- target.system: human progesterone receptor-A [PRA] isoform (Homo sapiens, UniProt P06401)
- Construct: host or cells: insect SF21 cells (baculovirus)
- Sequence (P06401 165-933): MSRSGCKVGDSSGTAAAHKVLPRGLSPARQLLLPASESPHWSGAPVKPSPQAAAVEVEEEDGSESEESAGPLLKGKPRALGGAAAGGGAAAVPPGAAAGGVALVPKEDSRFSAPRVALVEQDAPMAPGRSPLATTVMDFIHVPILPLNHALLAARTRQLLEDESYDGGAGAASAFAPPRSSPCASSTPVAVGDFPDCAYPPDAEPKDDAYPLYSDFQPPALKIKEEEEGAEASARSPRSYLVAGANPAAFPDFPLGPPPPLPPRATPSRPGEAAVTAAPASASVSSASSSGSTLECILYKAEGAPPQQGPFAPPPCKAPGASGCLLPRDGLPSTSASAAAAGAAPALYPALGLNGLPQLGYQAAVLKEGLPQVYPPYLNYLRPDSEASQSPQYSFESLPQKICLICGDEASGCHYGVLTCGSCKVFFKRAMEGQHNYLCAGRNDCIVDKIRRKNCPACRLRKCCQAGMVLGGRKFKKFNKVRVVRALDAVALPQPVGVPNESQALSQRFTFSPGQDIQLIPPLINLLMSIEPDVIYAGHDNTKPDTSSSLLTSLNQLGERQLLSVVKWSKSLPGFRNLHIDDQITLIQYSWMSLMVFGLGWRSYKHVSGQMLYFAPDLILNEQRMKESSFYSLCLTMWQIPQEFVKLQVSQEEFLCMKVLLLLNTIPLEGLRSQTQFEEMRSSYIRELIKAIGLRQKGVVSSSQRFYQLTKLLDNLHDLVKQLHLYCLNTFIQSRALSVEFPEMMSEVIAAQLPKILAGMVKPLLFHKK
- assay.explanation: Radioligand binding with human progesterone receptor cytosol ([3H]-progesterone competition)
- experimental.context: PRA cytosol expressed in insect SF21 cells, [3H]Prog ~0.8 nM, 4° C. overnight; Ki by Cheng-Prusoff, KL ~4.5 nM; read-out: Ki (nM) PR
experimental.readout: Ki (nM)
Reply with just the number (in nM).

So what does the record say about Ki for C=CCNc1cccc2c1-c1ccc3c(c1C(c1cc(Cl)cc(Cl)c1)O2)C(C)=CC(C)(C)N3 (centres unmarked) ?
4880

So what does the record say about Ki for COc1c(C)ccc2c1-c1ccc3c(c1C(C1C=C(C)CCC1)O2)C(C)=CC(C)(C)N3 (racemic) ?
27.8

So what does the record say about Ki for "COc1c(O)ccc2c1-c1ccc3c(c1[C@@H]([C@@H]1C=CCC1)O2)C(C)=CC(C)(C)N3" ?
3030

So what does the record say about Ki for CCCc1ccc(C2Oc3cccc(OC)c3-c3ccc4c(c32)C(C)=CC(C)(C)N4)s1 (centres unmarked) ?
3300

meta.source: patent US6506766B1
